molecular target: Adenosine receptor A2a (Homo sapiens, UniProt P29274); assay: Displacement of [3H]4-[2-[7-amino-2-(2-furyl)-1,2,4-triazolo[1,5-a][1,3,5]triazin-5-yl-amino]ethylphenol from human adenosine A2a receptor K150A mutant expressed in COS-7 cells assessed as radioligand Kd compound preincubated for 30 mins
Sequence (P29274 whole entry, looked up): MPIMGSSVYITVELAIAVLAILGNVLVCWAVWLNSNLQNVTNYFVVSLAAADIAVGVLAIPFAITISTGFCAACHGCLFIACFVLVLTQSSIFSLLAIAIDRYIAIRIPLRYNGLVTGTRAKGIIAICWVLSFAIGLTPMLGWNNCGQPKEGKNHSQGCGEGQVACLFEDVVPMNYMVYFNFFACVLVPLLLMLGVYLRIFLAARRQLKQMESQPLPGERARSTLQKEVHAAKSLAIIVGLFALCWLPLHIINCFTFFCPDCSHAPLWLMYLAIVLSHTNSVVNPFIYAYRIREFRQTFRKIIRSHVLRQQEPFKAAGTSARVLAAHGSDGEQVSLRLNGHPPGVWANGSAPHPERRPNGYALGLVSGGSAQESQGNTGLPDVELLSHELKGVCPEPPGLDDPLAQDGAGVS

# item-smiles, Kd (nM)
records = [
    ("CCNC(=O)[C@H]1O[C@@H](n2cnc3c(N)nc(NCCc4ccc(CCC(=O)Nc5ccc(OC(C)=O)c([N+](=O)[O-])c5)cc4)nc32)[C@H](O)[C@@H]1O", 3.17),
]

====

molecular target: Adenosine receptor A2a (Homo sapiens, UniProt P29274); assay: Displacement of [3H]4-[2-[7-amino-2-(2-furyl)-1,2,4-triazolo[1,5-a][1,3,5]triazin-5-yl-amino]ethylphenol from wild type human adenosine A2a receptor expressed in COS-7 cells assessed as radioligand Kd compound preincubated for 30 mins
Sequence (P29274 whole entry): as the sequence (P29274 whole entry, looked up) above
pKd: −log10 of the molar value.

# item-smiles, pKd
data = [
    ("CCNC(=O)[C@H]1O[C@@H](n2cnc3c(N)nc(NCCc4ccc(CCC(=O)Nc5ccc(OC(C)=O)c([N+](=O)[O-])c5)cc4)nc32)[C@H](O)[C@@H]1O", 8.66),
]
